tested on: Tov112D; test: Primary qHTS to identify gynecologic anti-cancer compounds using libraries of approved drugs and bioactive compounds (AID 1345084); conditions: Gynecologic cancer cell panel viability, ATPlite luminescence, 48 h; series mostly up to 57.5 µM; note: nearly all actives have a fitted effect of over 55% in size
Results filed as inconclusive are left out. Active and inactive are the calls of the source. Calls come from the whole dose curve; as a rule, active = well fitted cell-killing curve with a large enough effect; inconclusive = small, poorly fitted or top-dose-only effect, or effect the other way; inactive = flat fitted curve, though single readings scatter.
ENDPOINT NAME: outcome

COCCCOc1cc(C[C@@H](C[C@H](N)[C@@H](O)C[C@H](C(=O)NCC(C)(C)C(N)=O)C(C)C)C(C)C)ccc1OC	inactive
CC(=O)[C@H]1CC[C@H]2[C@@H]3CC=C4C[C@@H](O)CC[C@]4(C)[C@H]3CC[C@]12C	inactive
CN(Cc1cc(Br)cc(Br)c1N)C1CCCCC1	inactive

----------
assay: qHTS for identification of novel therapeutic agents for treatment of microphthalmiaassociated transcription factor (MiT) renal cell carcinoma (RCC) (AID 1963991); settings: TFE3-RCC UOK109 viability, CellTiter-Glo, 48 h; measured here: UOK109 Z-AUC; stronger effect = lower value;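 note: curves scaled with 100% = DMSO viability and 0% = empty wells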
Inconclusive results are not listed.
// assign Criterion met if z-score falls strictly below 0.8, else Criterion not met (ties count as Criterion not met)

A selection of reference data follows.
CCOC(=O)c1ccc(C#Cc2ccc3c(c2)C(C)(C)CCS3)nc1	Criterion met
COc1ccccc1OCC(O)COC(N)=O (stereo not given)	Criterion met
CN(CCOc1ccc(CC2SC(=O)NC2=O)cc1)c1ccccn1 (stereo not given)	Criterion not met
CN(Cc1cc(Br)cc(Br)c1N)C1CCCCC1	Criterion not met
NCCCC(O)(P(=O)(O)O)P(=O)(O)O	Criterion met
CC(=O)CC(c1ccccc1)c1c(O)c2ccccc2oc1=O (stereo not given)	Criterion not met
NS(=O)(=O)c1cc2c(cc1Cl)NC(C(Cl)Cl)NS2(=O)=O (stereo not given)	Criterion met
Nc1nc(N)nc(-c2cc(Cl)ccc2Cl)n1	Criterion met
Cc1cccc(Nc2ccncc2S(=O)(=O)NC(=O)NC(C)C)c1	Criterion met
CCOCC(O)COc1ccc(NC(=O)CC[S+](C)C)cc1 (stereo not given)	Criterion met

Lab note: z-score threshold 0.8. Does this molecule come in strictly under it? CCN[C@H]1C[C@H](C)S(=O)(=O)c2sc(S(N)(=O)=O)cc21
Criterion not met

For this molecule, is z-score lower than 0.8? N[C@@H](C(=O)N[C@@H]1C(=O)N2C(C(=O)O)=C(Cl)CS[C@H]12)c1ccccc1
Criterion not met

Lab note: z-score threshold 0.8. Does this molecule come in strictly under it? Cn1c(=O)c2c(ncn2CC(O)CO)n(C)c1=O (stereo not given)
Criterion met

Threshold test, z-score < 0.8: CCN1CCCC1CNC(=O)c1cc(S(N)(=O)=O)ccc1OC (stereo not given)
Criterion met

Consider the molecule C[C@@H](NCCCc1cccc(C(F)(F)F)c1)c1cccc2ccccc12 . Is its z-score strictly less than 0.8?
Criterion not met

----------
assay: qHTS of pediatric cancer cell lines to identify multiple opportunities for drug repurposing: Primary screen for BT-12 cells (AID 1347101); conditions: BT-12 viability, CellTiter-Glo luminescence, 48 h; series mostly up to 57.3 µM; note: nearly all actives have a fitted effect of over 25% in size; note: potency is the fitted concentration of half-maximal effect
Results filed as inconclusive are left out. Active and inactive are the calls of the source. Calls come from the whole dose curve; as a rule, active = well fitted cell-killing curve with a large enough effect; inconclusive = small, poorly fitted or top-dose-only effect; inactive = flat fitted curve, though single readings scatter.
ENDPOINT NAME: Potency

O=C(N[C@H](CO)[C@H](O)c1ccc([N+](=O)[O-])cc1)C(Cl)Cl	inactive
CC[C@H](NC(C)C)[C@H](O)c1ccc(O)c2[nH]c(=O)ccc12	inactive
CCOC(=O)c1ccc(OC(=O)CCCCCN=C(N)N)cc1	inactive
O=C(O)CSCC(=O)NC1CCSC1=O (configuration not stated)	inactive
CC(N)C12CC3CC(CC(C3)C1)C2 (configuration not stated)	inactive
Cc1ccnc2c1NC(=O)c1cccnc1N2C1CC1	inactive

For Nc1nc(F)nc2c1ncn2[C@@H]1O[C@H](CO)[C@@H](O)[C@@H]1O , what is its reported Potency?
1530 nM (active)

Find the recorded Potency belonging to OCc1ccc(-c2nn(Cc3ccccc3)c3ccccc23)o1 and report it.
inactive

Which Potency is listed for S=P(N1CC1)(N1CC1)N1CC1 ?
inactive

Entry under review: NC(=O)c1ccc2[nH]ccc2c1 . Reported Potency?
inactive

Dear colleague, I am looking for the recorded Potency of the following compound: CNNCc1ccc(C(=O)NC(C)C)cc1
inactive

Give its Potency value. Item: CCOCC(O)COc1ccc(NC(=O)CC[S+](C)C)cc1 (configuration not stated)
inactive

----------
system: MCC-13; assay: qHTS assay to identify novel small-molecules to repurpose for Merkel cell carcinoma treatment (AID 1296009); settings: MCC and control cell lines, CellTiter-Glo viability, 72 h; series mostly up to 46 µM; note: nearly all actives have a fitted effect of over 60% in size
Records with an inconclusive call do not appear. Calls of active or inactive are those of the source. Calls come from the whole dose curve; as a rule, active = well fitted inhibition curve with a large enough effect; inconclusive = small, poorly fitted or top-dose-only effect; inactive = flat fitted curve, though single readings scatter.
ENDPOINT NAME: outcome

Use the examples below as a reference point.
COc1ccc2cc3[n+](cc2c1OC)CCc1cc2c(cc1-3)OCO2	inactive
CCOC(=O)c1ccc(C#Cc2ccc3c(c2)C(C)(C)CCS3)nc1	inactive
CN(CCOc1ccc(CC2SC(=O)NC2=O)cc1)c1ccccn1 (stereo unspecified)	inactive
O=C(NCC1CN(c2ccc(N3CCOCC3=O)cc2)C(=O)O1)c1ccc(Cl)s1 (stereo unspecified)	inactive
COc1ccccc1OCC(O)COC(N)=O (stereo unspecified)	inactive
CNS(=O)(=O)CCc1ccc2[nH]cc(C3CCN(C)CC3)c2c1	inactive

What measured outcome goes with C[C@@H](CN1CC(=O)NC(=O)C1)N1CC(=O)NC(=O)C1 ?
inactive

What value of outcome has been recorded for this entry: COc1cc(NS(=O)(=O)c2ccc(N)cc2)nc(OC)n1
inactive

Would you kindly share the measured outcome for CCCOc1ccc(C(=O)OCCN(CC)CC)cc1N ?
inactive

What value of outcome has been reported for the following compound? COC(c1ccccc1)(c1ccccc1)[C@H](Oc1nc(C)cc(C)n1)C(=O)O
inactive

Dear colleague, I am looking for the recorded outcome of the following compound: CCn1cc(C(=O)O)c(=O)c2cc(F)c(N3CCN(C)CC3)cc21
inactive

----------
Z-AUC values by entry
test: qHTS drug screen for cell cycle checkpoint inhibitors in PARPi-resistant BRCA-mutant ovarian cancer cell lines. (AID 1963452); conditions: PEO1/OlaR viability, CellTiter-Glo luminescence, 96 h; measured here: PEO1 parental Z-AUC; stronger effect = lower value
// return just the number, without any unit appended

CC[C@H](NC(C)C)[C@H](O)c1ccc(O)c2[nH]c(=O)ccc12	0.0863

Would you kindly look at the next entry?
Using the record for Nc1nc(=S)c2[nH]cnc2[nH]1 , report its Z-AUC.
-0.887

----------
system: CAOV3; assay: Primary qHTS to identify gynecologic anti-cancer compounds using libraries of approved drugs and bioactive compounds (AID 1345084); details: Gynecologic cancer cell panel viability, ATPlite luminescence, 48 h; series mostly up to 57.5 µM; note: nearly all actives have a fitted effect of over 55% in size
Results filed as inconclusive are left out. Active and inactive are the calls of the source. The call rests on the fitted dose curve; in most records, active means well fitted cell-killing curve with a large enough effect; inconclusive means small, poorly fitted or top-dose-only effect, or effect the other way; inactive means flat fitted curve, though single readings scatter.
Valid outcomes are listed here; reply with one: y (active), n (inactive)

Worked examples follow.
CCOCC(O)COc1ccc(NC(=O)CC[S+](C)C)cc1 (stereo unspecified)	n
Cc1nnc(NS(=O)(=O)c2ccc(N)cc2)s1	n
NC(=O)N1c2ccccc2CC(=O)c2ccccc21	n
CCn1cc(C(=O)O)c(=O)c2cc(F)c(N3CCNCC3)cc21	n
CNC(=O)c1cc(Oc2ccc(NC(=O)Nc3ccc(Cl)c(C(F)(F)F)c3)cc2)ccn1	n

Let's switch to this compound now.
Test call, this compound: CO[C@@]12[C@H](COC(N)=O)C3=C(C(=O)C(C)=C(N)C3=O)N1C[C@@H]1N[C@@H]12
y

----------
system: MKL-1; assay: qHTS assay to identify novel small-molecules to repurpose for Merkel cell carcinoma treatment (AID 1296009); conditions: MCC and control cell lines, CellTiter-Glo viability, 72 h; series mostly up to 46 µM; note: nearly all actives have a fitted effect of over 60% in size; note: potency is the fitted concentration of half-maximal effect
Inconclusive results are not listed. Activity calls are given as the source filed them. The call rests on the fitted dose curve; in most records, active means well fitted inhibition curve with a large enough effect; inconclusive means small, poorly fitted or top-dose-only effect; inactive means flat fitted curve, though single readings scatter.
ENDPOINT NAME: Potency

Recorded results for 8 molecules are shown here.
O=C(O)c1cccnc1	inactive
NC1(c2ccc(-c3nc4ccn5c(=O)[nH]nc5c4cc3-c3ccccc3)cc2)CCC1	20.9 µM (active)
C[C@@H](NCCCc1cccc(C(F)(F)F)c1)c1cccc2ccccc12	inactive
CC[C@H](NC(C)C)[C@H](O)c1ccc(O)c2[nH]c(=O)ccc12	inactive
CN(C)CCc1c[nH]c2ccc(C[C@H]3COC(=O)N3)cc12	inactive
COc1nc(N)nc2c1ncn2[C@@H]1O[C@H](CO)[C@@H](O)[C@@H]1O	inactive
CC(C(=O)O)c1ccc2c(c1)CC(=O)c1ccccc1S2 (configuration not stated)	inactive
NCCCC(O)(P(=O)(O)O)P(=O)(O)O	inactive

Potency of O=C(O)c1cc(=O)[nH]c(=O)[nH]1 on MKL-1?
inactive

What is its Potency for MKL-1? Entry: C#CCN[C@@H]1CCc2ccccc21
inactive

For the record Nc1nc(F)nc2c1ncn2[C@@H]1O[C@H](CO)[C@@H](O)[C@@H]1O , what value of Potency is listed for MKL-1?
16.8 µM (active)

Request body: readout Potency, system MKL-1, query CCOC(=O)c1ccc(OC(=O)CCCCCN=C(N)N)cc1 . Return the value.
inactive
